Target: DNA dC->dU-editing enzyme APOBEC-3F (Homo sapiens)
Experiment: qHTS for inhibitors of Vif-A3F interactions: Cherry picks counterscreen; also: nearly all actives have a fitted effect of over 65% in size
Details: HeLa A3F-eYFP/Vif cells, eYFP fluorescence, 24 h; series mostly up to 46.1 µM
Screen size: about 2,100 compounds; about 1,100 (52%) were called active. Inconclusive results (about 29%) are left out. Calls follow the shape of the dose curve; as a rule, active = well fitted inhibition curve with a large enough effect; inconclusive = small, poorly fitted or top-dose-only effect; inactive = no such curve, though single readings can be large or run the other way. So high a share suggests a set chosen from earlier hits. The list shows a part of the results.
One label from this list, please: yes = active, no = inactive

Use the examples below as a reference point.
| compound | label |
| --- | --- |
| CN1/C(=C\C=C2/SC(=S)N(CC(=O)O)C2=O)C(C)(C)c2ccccc21 | no |
| Fc1ccc(CNc2nc3ccc(Cl)cc3n3nnnc23)cc1 | yes |
| COc1ccccc1C1c2ccc3ccccc3c2Oc2ncn(CCN(C)C)c(=N)c21 (stereo not drawn) | yes |

Recorded test call requested for `CCOC(=O)c1c(-c2ccc(OC)cc2)csc1/N=C/C1C(=O)CCCC1=O` no

Recorded test call requested for `CCCN1C(=O)/C(=C\C=C2\N(CC)c3ccccc3C2(C)C)SC1=S` yes

###

Molecular target: DNA dC->dU-editing enzyme APOBEC-3F (Homo sapiens)
Test: qHTS for inhibitors of Vif-A3F interactions: Cherry picks counterscreen; also: nearly all actives have a fitted effect of over 65% in size
Conditions: HeLa A3F-eYFP/Vif cells, eYFP fluorescence, 24 h; series mostly up to 46.1 µM
Out of some 2,100 compounds screened, about 1,100 (52%) were called active. Roughly 29% stayed inconclusive and do not appear here. The call rests on the fitted dose curve; in most records, active means well fitted inhibition curve with a large enough effect; inconclusive means small, poorly fitted or top-dose-only effect; inactive means no such curve, though single readings can be large or run the other way. The set was probably picked from earlier hits. The list shows a part of the results.
One label from this list, please: TRUE = active, FALSE = inactive

| compound | label |
| --- | --- |
| COc1ccccc1N1C(=O)c2cccc3c(C(=O)O)ccc(c23)C1=O | FALSE |
| Cc1ccc(S(=O)(=O)Nc2cc(-c3nn(C)c(=O)c4ccccc34)ccc2N2CCOCC2)cc1 | TRUE |
| Cc1ccc(/C=C2/NC(=O)N(Cc3ccccc3F)C2=O)s1 | TRUE |
| COc1cc(SC)ccc1C(=O)N1CCN(c2ccccc2OC)CC1 | TRUE |

--- query ---
Recorded test call requested for `O=C(C[C@@H]1C/C=C/CC[C@H](Cc2ccc(F)cc2)C(=O)OC[C@@H](Cc2ccccc2)NC1=O)N[C@H](CO)Cc1ccccc1` TRUE

###

Biological target: DNA dC->dU-editing enzyme APOBEC-3F (Homo sapiens) (UniProt Q8IUX4)
Sequence (Q8IUX4 whole entry, looked up): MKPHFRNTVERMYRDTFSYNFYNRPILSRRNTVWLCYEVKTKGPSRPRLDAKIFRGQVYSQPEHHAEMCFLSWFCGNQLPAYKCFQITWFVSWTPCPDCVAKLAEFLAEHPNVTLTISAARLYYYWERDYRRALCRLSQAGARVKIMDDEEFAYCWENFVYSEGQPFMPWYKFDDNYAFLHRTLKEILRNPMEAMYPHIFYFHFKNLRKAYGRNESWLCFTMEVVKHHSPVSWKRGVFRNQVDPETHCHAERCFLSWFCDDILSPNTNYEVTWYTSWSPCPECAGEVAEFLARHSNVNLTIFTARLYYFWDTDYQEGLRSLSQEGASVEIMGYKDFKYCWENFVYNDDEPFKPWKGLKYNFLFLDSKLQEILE
Test: qHTS for inhibitors of Vif-A3F interactions: Cherry picks counterscreen; also: nearly all actives have a fitted effect of over 65% in size
Conditions: HeLa A3F-eYFP/Vif cells, eYFP fluorescence, 24 h; series mostly up to 46.1 µM
Hit rate of the full screen: of about 2,100 compounds, about 1,100 (52%) were called active. Not shown: some 29% with an inconclusive outcome. Calls come from the whole dose curve; as a rule, active = well fitted inhibition curve with a large enough effect; inconclusive = small, poorly fitted or top-dose-only effect; inactive = no such curve, though single readings can be large or run the other way. The set was probably picked from earlier hits. Some of the results follow.
One label from this list, please: y = active, n = inactive

Recorded test call requested for CCOC(=O)C1C(=O)C=C(/C=C/c2ccc(N(C)C)cc2)CC1c1ccccc1 (stereo not given) y

Recorded test call requested for `COc1cc(OC)c(/C=C2\SC(=O)N(CC(=O)Nc3ccccc3F)C2=O)c(OC)c1` y

Recorded test call requested for `CCOC(=O)c1c(Nc2ccc(Cl)cc2)sc(/C=C2\C=Nc3ccccc32)c1O` y

Recorded test call requested for `CCN(CC)c1ccc2cc(-c3nnc(-c4cccc(Cl)c4)o3)c(=O)oc2c1` y

Recorded test call requested for CS(=O)(=O)N1N=C(c2ccccc2)CC1c1ccc2c(c1)OCO2 (stereo not given) y

Recorded test call requested for `CCN(CC)c1ccc2cc(-c3nc(-c4ccc(Cl)cc4Cl)cs3)c(=O)oc2c1` n

Recorded test call requested for `Cc1ccc(/C=N/NC(=O)c2nc3nc(C)cc(C)n3n2)cc1` n

Recorded test call requested for `Cc1ccc(/C=N/NC(=O)c2cc(C)oc2C)cc1` y

Recorded test call requested for `CCN(CC)c1ccc2cc(-c3nnc(-c4ccccc4)o3)c(=O)oc2c1` y

Recorded test call requested for `CCN(CC)c1ccc2cc(-c3nc(-c4cccs4)no3)c(=O)oc2c1` y

###

Target: DNA dC->dU-editing enzyme APOBEC-3F (Homo sapiens)
Test: qHTS for inhibitors of Vif-A3F interactions: Cherry picks counterscreen; also: nearly all actives have a fitted effect of over 65% in size
Settings: HeLa A3F-eYFP/Vif cells, eYFP fluorescence, 24 h; series mostly up to 46.1 µM
Excerpt: The recent discovery and characterization of host restriction factors, which provide a potent defense to invading retroviruses, has provided new targets for antiviral drug development. […] In the presence of an inhibitor, it is expected that Vif will be unable to degrade A3G-eYFP and/or A3F-eYFP, resulting in an increase in yellow fluorescence. […]
The campaign covered roughly 2,100 compounds. About 1,100 (52%) were called active. Inconclusive results (about 29%) are left out. The call rests on the fitted dose curve; in most records, active means well fitted inhibition curve with a large enough effect; inconclusive means small, poorly fitted or top-dose-only effect; inactive means no such curve, though single readings can be large or run the other way. So high a share suggests a set chosen from earlier hits. The list shows a part of the results.
One label from this list, please: active, inactive

Use the examples below as a reference point.
| compound | label |
| --- | --- |
| COc1ccc2oc(=N)c(C(=O)Nc3ccc(F)cc3)cc2c1 | active |
| CCOC(=O)c1cnc(-n2nc(C)cc2C)nc1NNc1nc(-c2ccccc2)cc(-c2ccccc2)n1 | inactive |
| CCOC(=O)c1c(CN(CC)CC)n(-c2ccccc2)c2ccc(O)cc12 | inactive |
| N#CC(C(=S)Nc1ccccc1)c1nc2ccccc2[nH]1 (stereo unspecified) | inactive |
| Cc1ccc(O)c(NC(=O)c2cc(-c3ccccc3O)no2)c1 | active |
| COc1ccc(/C=C/C=C2\NC(=S)NC2=O)cc1 | inactive |
| Cc1c(NC(=O)c2csc3c2CCCC3)c(=O)n(-c2ccccc2)n1C | inactive |
| Cc1cccc(N2CCN(C(=O)c3cccc(N4CCCC4=O)c3)C(C)C2)c1 (stereo unspecified) | active |
| CCS(=O)(=O)C1=NN2C(=N)/C(=C\c3ccc(SCc4ccco4)o3)C(=O)N=C2S1 | inactive |
| O=C(CSc1ccccc1)Nc1nc2ccccc2[nH]1 | active |

Recorded test call requested for `Cc1cc(C)nc(NC(=S)Nc2cccc(Cl)c2Cl)c1` inactive

###

Target: DNA dC->dU-editing enzyme APOBEC-3F (Homo sapiens)
Assay: qHTS for inhibitors of Vif-A3F interactions: Cherry picks counterscreen; also: nearly all actives have a fitted effect of over 65% in size
Conditions: HeLa A3F-eYFP/Vif cells, eYFP fluorescence, 24 h; series mostly up to 46.1 µM
Out of some 2,100 compounds screened, about 1,100 (52%) were called active. Another 29% or so got no clear call; they are omitted. Calls come from the whole dose curve; as a rule, active = well fitted inhibition curve with a large enough effect; inconclusive = small, poorly fitted or top-dose-only effect; inactive = no such curve, though single readings can be large or run the other way. So high a share suggests a set chosen from earlier hits. The list shows a part of the results.
One label from this list, please: active, inactive

Use the examples below as a reference point.
| molecule | assay.system | label |
| --- | --- | --- |
| CN1C2CCC1/C(=C/c1cccn1C)C(=O)/C2=C\c1cccn1C | DNA dC->dU-editing enzyme APOBEC-3F (Homo sapiens) | active |
| Cc1cc(C(=O)N/N=C/c2ccc3c(c2)OCO3)c2ccccc2n1 | DNA dC->dU-editing enzyme APOBEC-3F (Homo sapiens) | active |
| N#CC(C#N)=C1C=C2C=C(N3CCOCC3)CCC2CC1 (stereo unspecified) | DNA dC->dU-editing enzyme APOBEC-3F (Homo sapiens) | inactive |

Recorded test call requested for `CCOC(=O)c1[nH]c(C)c(C(=O)Nc2ccccc2F)c1C` active

Recorded test call requested for `COc1ccc(OC)c(NC(=O)c2cc(-c3cc(C)cc(C)c3O)n[nH]2)c1` inactive

Recorded test call requested for `CCOC(=O)/C(=C/C1=CC(=C/N(C)C)/C(=O)O1)C(C)=O` inactive

###

Molecular target: DNA dC->dU-editing enzyme APOBEC-3F (Homo sapiens) (UniProt Q8IUX4)
Experiment: qHTS for inhibitors of Vif-A3F interactions: Cherry picks counterscreen; also: nearly all actives have a fitted effect of over 65% in size
Settings: HeLa A3F-eYFP/Vif cells, eYFP fluorescence, 24 h; series mostly up to 46.1 µM
In all, about 2,100 compounds went through this assay and about 1,100 (52%) were called active. Another 29% or so got no clear call; they are omitted. Calls come from the whole dose curve; as a rule, active = well fitted inhibition curve with a large enough effect; inconclusive = small, poorly fitted or top-dose-only effect; inactive = no such curve, though single readings can be large or run the other way. So high a share suggests a set chosen from earlier hits. This is one part of the list.
One label from this list, please: True = active, False = inactive

Use the examples below as a reference point.
| molecule | label |
| --- | --- |
| Cc1ccc(NC(=S)N=Nc2c(O)n(C)c3ccc(S(=O)(=O)N4CCOCC4)cc23)cc1 | False |
| COc1ccc(NC(=O)/C(C#N)=C\C=C\c2ccco2)cc1 | True |
| COc1cc(C(=O)Nc2ccc3ccccc3c2)cc(OC)c1OC | True |

Recorded test call requested for CCOC(=O)CSC1=C(C#N)C(c2ccc(C)s2)CC(=O)N1 (centres undefined) True

Recorded test call requested for `Cc1ccc(-c2cc(C(=O)N/N=C/c3c[nH]c4ccccc34)[nH]n2)cc1` True

###

Target: DNA dC->dU-editing enzyme APOBEC-3F (Homo sapiens)
Test: qHTS for inhibitors of Vif-A3F interactions: Cherry picks counterscreen; also: nearly all actives have a fitted effect of over 65% in size
Conditions: HeLa A3F-eYFP/Vif cells, eYFP fluorescence, 24 h; series mostly up to 46.1 µM
Screen size: about 2,100 compounds; about 1,100 (52%) were called active. Inconclusive results (about 29%) are left out. Calls follow the shape of the dose curve; as a rule, active = well fitted inhibition curve with a large enough effect; inconclusive = small, poorly fitted or top-dose-only effect; inactive = no such curve, though single readings can be large or run the other way. The set was probably picked from earlier hits. Some of the results follow.
One label from this list, please: T for active, F for inactive

| molecule | label |
| --- | --- |
| Cn1c(/C=C/c2ccc([N+](=O)[O-])o2)nc2ccccc2c1=O | T |
| COc1ccccc1NC1=NC(c2ccc(Cl)cc2)N=C(N)N1 (stereo unspecified) | T |
| Cc1ccc2nc(/C(C#N)=C\c3ccc(OC(=O)c4cccs4)cc3)[nH]c2c1 | T |
| Cc1cccc(C)c1NC(=S)NC(C)CCc1ccccc1 (stereo unspecified) | F |
| Cc1sc2nc(CSc3nnnn3-c3ccc(Cl)cc3)[nH]c(=O)c2c1C | F |

Recorded test call requested for `Cc1cc(/C=C2\NC(=S)N(C)C2=O)ccc1N1CCCC1` T

Recorded test call requested for `CC1CCN(c2ccc3c(c2)S(=O)(=O)c2cccc(C(=O)NCc4cccc(F)c4)c2C3=O)CC1` T

Recorded test call requested for `O=C(NCc1cccc(F)c1)c1cccc2c1C(=O)c1ccc(N3CCCC3)cc1S2(=O)=O` T

Recorded test call requested for `Cc1cc(N2CCCC2)ccc1/C=C1\NC(=S)N(C)C1=O` T

Recorded test call requested for `Cc1cc(N/N=C/c2ccc([N+](=O)[O-])o2)nc2ccccc12` T

Recorded test call requested for O=C(CC1CC2CCC1C2)Nc1nc(-c2ccccn2)cs1 (stereo unspecified) F
